Kindly supply the reported Relative activity (%) values for the records listed here.
- test_target: T1, human CD112R on CHO-CD112R cells (human, UniProt Q6DKI7 41-326)
- T1 construct: whole, on cells; also called hCD112R; PVRIG
- T1 sequence (looked up): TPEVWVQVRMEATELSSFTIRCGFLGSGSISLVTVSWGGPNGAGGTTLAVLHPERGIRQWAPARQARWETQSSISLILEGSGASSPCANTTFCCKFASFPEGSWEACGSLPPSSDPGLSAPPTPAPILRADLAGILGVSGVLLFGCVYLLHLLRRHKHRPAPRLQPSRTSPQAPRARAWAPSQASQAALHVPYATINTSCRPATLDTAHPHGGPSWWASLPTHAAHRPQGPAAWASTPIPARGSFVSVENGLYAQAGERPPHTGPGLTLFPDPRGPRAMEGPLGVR
- assay_remarks: FACS on CHO-CD112R cells; EC50 Ref/EC50 antibody
One number for each entry, in %.

Worked cases, Relative activity (%) given:
Chi-62 (antibody, V domains shown, chimeric) VH: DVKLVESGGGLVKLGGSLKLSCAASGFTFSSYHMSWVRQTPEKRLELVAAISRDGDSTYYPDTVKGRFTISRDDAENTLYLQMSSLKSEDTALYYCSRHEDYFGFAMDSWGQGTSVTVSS VL: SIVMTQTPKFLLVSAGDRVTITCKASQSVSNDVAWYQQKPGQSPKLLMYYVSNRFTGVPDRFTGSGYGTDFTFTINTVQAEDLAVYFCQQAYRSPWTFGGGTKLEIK	2000
Chi-46 (antibody, V domains shown, chimeric) VH: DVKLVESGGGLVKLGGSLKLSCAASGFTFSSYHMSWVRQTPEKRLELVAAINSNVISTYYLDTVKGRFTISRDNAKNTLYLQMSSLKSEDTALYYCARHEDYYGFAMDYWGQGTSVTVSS VL: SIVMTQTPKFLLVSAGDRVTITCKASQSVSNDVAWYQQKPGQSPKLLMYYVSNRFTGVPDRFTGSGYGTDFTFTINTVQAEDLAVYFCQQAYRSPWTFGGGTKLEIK	388

We next turn to a different binder, shown below.
Relative activity (%) in this record for Chi-36 (antibody, V domains shown, chimeric) VH: EVQLQQSGPELVKPGASVRISCKASGYTFTDYNMHWVKQSHGKSLEWIGYIYPYNGGTGHNQNFKSKATLTVDKSSSTAYMEFRSLTSDDSAVYYCAREDFRHEKMDYWGQGTSVTVSS VL: DIQMTQSPASLSASVGETVTITCRTSDNIYVYLSWYQQKQGKSPQLLVYNAKTLTENVPSRFSGSGSGTQFSLKINSLQPEDFGSYYCQHHYGTPYTFGGGTKLEIK : 478

Data origin, for the record: patent US20240309087A1
